assay-remarks: Protective potential against UV irradiation, MTS assay, Me45
Type: cell-based
experimental-conditions: human; Me45; 5 µM; after 48 h; both exposed and not exposed to UV radiation; read-out: viability of treated cells much lower than in the control samples
property-name: viability at 48 h, 5 µM

Entry CCCCCCCCCCCC(=O)Oc1ccc(-c2coc3cc(O)cc(O)c3c2=O)cc1 [4′-L-Gen, 4′-genistein dodecanate] has what viability at 48 h, 5 µM? ~50%

----------
assay-remarks: Lipophilicity (Log P)
Format: physicochemical
experimental-conditions: method not stated; read-out: Log P
property-name: logP
Numbers only.

Entry O=c1c(-c2ccc(O)cc2)coc2cc(O)cc(O)c12 has what logP? 1.74

----------
Answer each item with its documented logP.
assay-remarks: Lipophilicity (Log P)
Type: physicochemical
Numbers only.

Some solved entries appear below for comparison.
O=C(OCc1ccccc1)Oc1cc(O)c2c(=O)c(-c3ccc(O)cc3)coc2c1 [WBn-Gen, bezyl-7-O-genistein carbonate]; 4.04
CCCCCCCCCCCC(=O)Oc1ccc(-c2coc3cc(O)cc(O)c3c2=O)cc1 [4′-L-Gen, 4′-genistein dodecanate]; 5.71

Moving on to another molecule below.
Entry CCCCCOC(=O)Oc1cc(O)c2c(=O)c(-c3ccc(O)cc3)coc2c1 [Compound W5-Gen, n-pentyl-7-O-genistein carbonate] has what logP? 3.96

Values from paper PMC11435217
